B1: library; the commonest letter at each place (parent)
chain: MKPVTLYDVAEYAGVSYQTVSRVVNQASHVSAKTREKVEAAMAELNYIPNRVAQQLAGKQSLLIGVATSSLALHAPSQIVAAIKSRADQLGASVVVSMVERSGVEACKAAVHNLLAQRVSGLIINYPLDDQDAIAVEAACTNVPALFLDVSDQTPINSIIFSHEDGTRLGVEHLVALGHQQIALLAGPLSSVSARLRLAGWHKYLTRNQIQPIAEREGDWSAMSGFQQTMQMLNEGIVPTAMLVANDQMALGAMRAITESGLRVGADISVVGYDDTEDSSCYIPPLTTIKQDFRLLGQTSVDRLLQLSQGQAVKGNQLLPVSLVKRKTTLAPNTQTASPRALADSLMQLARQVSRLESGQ

# Variants of: B1
# measurement_description: basal output G0 (YFP, no IPTG) (log10 MEF); higher = higher reporter expression without inducer
# stated_conditions: with IPTG
Listing of recorded basal output G0 (log10) by entry.

mutant_code	basal output G0 (log10)
G200C	1.48
I83F G200C	3.03
F161L	1.83
N125D	2.73
S69T L169P	2.68
Y273H D278G Q335L E357G	2.16
V96M	1.73
G103D H202Y P284T	2.85
I83M V136E	4.52
